The measured values listed here are drawn from PubChem BioAssay AID368.

subjectOfTest: M-phase inducer phosphatase 2 (Homo sapiens)
procedureSummary: inhibitors of Cdc25B phosphatase catalytic domain, primary screen, biochemical, OMFP fluorescence (AID 368)
experimentalConditions: recombinant Cdc25B, OMFP fluorescence Ex485/Em525;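 compounds tested at 10 µM final in the well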
Screen size: about 65,000 compounds; about 85 (0.1%) were called active. Rule as the data show it: active = inhibition above about 50%; inactive = the rest. The sample holds actives, similar compounds and a random draw of the others, so the mix is not that of the screen.
Returns: one label drawn from T = active, F = inactive

molecule	classLabel
CC1=C(C)CC2C(=O)N(c3cccc4ccccc34)C(=O)C2C1 (stereo unspecified)	F
CCOc1ccc(C(=O)Nc2cc(OC)ccc2OC)cc1	F
Cc1occc1C(=O)Nc1cccc(Cn2cccn2)c1	F
CC(C)Oc1ccc(C(=O)Nc2cc(=O)n(C)c(=O)n2C)cc1	F
CC1CN(C2CCN(C(=O)COc3ccccc3)CC2)CC(C)O1 (stereo unspecified)	F
O=C(CN1C(=O)C2C3C=CC(C3)C2C1=O)NCC1COc2ccccc2O1 (stereo unspecified)	F
CCOC(=O)c1c(C)[nH]c(C(=O)NCc2ccccc2OC)c1C	F
COc1cccc2c(C)c(C(=O)O)[nH]c12	T

For this molecule, state the assay outcome: Cc1ccc(NC(=O)CN2CCC3(O)CCCCC3C2c2ccc3c(c2)OCO3)c(C)c1 (stereo unspecified)
F

Continue with COc1ccc(C)cc1NC(=O)c1[nH]c(C)c(C(C)=O)c1C
F

Continue with NC(=O)CSC1=Nc2ccccc2C2=NC(CCC(=O)NCc3ccc(F)cc3)C(=O)N12 (stereo unspecified)
F

---

Please provide measured inhibition for the entries that follow.
subjectOfTest: M-phase inducer phosphatase 2 (Homo sapiens) (UniProt P30305)
Sequence (P30305 whole entry, looked up, the tested form may be a part): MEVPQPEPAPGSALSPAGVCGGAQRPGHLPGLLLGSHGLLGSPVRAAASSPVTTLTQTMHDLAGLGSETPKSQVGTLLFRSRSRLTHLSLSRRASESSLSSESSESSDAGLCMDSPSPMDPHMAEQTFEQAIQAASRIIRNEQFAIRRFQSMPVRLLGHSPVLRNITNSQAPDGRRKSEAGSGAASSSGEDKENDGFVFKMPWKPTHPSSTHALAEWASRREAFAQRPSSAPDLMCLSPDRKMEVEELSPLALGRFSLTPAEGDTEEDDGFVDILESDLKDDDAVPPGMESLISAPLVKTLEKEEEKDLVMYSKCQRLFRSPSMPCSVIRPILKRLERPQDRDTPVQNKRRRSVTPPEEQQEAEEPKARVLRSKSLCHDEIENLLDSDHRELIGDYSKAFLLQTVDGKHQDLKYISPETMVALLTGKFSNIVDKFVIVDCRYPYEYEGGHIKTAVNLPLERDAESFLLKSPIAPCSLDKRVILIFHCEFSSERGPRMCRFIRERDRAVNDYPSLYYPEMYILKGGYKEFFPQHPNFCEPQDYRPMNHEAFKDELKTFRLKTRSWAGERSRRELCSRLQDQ
procedureSummary: inhibitors of Cdc25B phosphatase catalytic domain, primary screen, biochemical, OMFP fluorescence (AID 368)
experimentalConditions: recombinant Cdc25B, OMFP fluorescence Ex485/Em525; hits give high values;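 compounds tested at 10 µM final in the well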
The campaign covered roughly 65,000 compounds. About 85 (0.1%) were called active. The sample as a whole holds a higher share of actives than the screen did.

Example entries begin here.
compound	inhibition
COc1ccc(N2CCN(C3CC(=O)N(c4ccc5c(c4)OCCO5)C3=O)CC2)cc1 (stereo not given)	5.32% (inactive)
Cc1nc(Nc2ccc3c(c2)OCCO3)c2nnn(Cc3ccccc3Cl)c2n1	-17.1% (inactive)
CCCc1cc(=O)oc2c(C)c(O)c(CN3CCCCC3)cc12	-7.47% (inactive)
Cc1nn(Cc2ccc(Cl)c(Cl)c2)c(C)c1NC(=O)c1cc(C2CC2)on1	-9.41% (inactive)

Okay, now this compound:
Give its inhibition value. Item: O=C(CSc1nnc(-c2cccnc2)n1Cc1ccco1)c1ccc(Cl)c(Cl)c1
8.97% (inactive)

---

Please provide measured inhibition for the entries that follow.
subjectOfTest: M-phase inducer phosphatase 2 (Homo sapiens)
procedureSummary: inhibitors of Cdc25B phosphatase catalytic domain, primary screen, biochemical, OMFP fluorescence (AID 368)
experimentalConditions: recombinant Cdc25B, OMFP fluorescence Ex485/Em525; hits give high values;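 compounds tested at 10 µM final in the well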
Screen size: about 65,000 compounds; about 85 (0.1%) were called active. The full list was thinned out, with actives kept by preference.
Give bare numbers, in %.

molecule	testValue
COc1ccc(N2CC(C)Cn3c2nc2c3c(=O)n(Cc3ccccc3F)c(=O)n2C)c(OC)c1 (stereo not given)	2.66
CCCC(=O)Nc1ccc(C(=O)NCCCn2ccnc2)cc1	2.06
CCN(CCCCOC(=O)c1ccc(OC)c(OC)c1)C(C)Cc1ccc(OC)cc1 (stereo not given)	-19.9
CCOc1ccccc1N(CC(=O)NC1CCCCC1)C(=O)CCCC(=O)Nc1ccccn1	-10.5

Okay, now this molecule:
Give its inhibition value. Item: Cc1ccc(S(=O)(=O)N2C3C=CC(C3)C2C(=O)O)cc1 (stereo not given)
-0.599

---

subjectOfTest: M-phase inducer phosphatase 2 (Homo sapiens)
procedureSummary: inhibitors of Cdc25B phosphatase catalytic domain, primary screen, biochemical, OMFP fluorescence (AID 368)
experimentalConditions: recombinant Cdc25B, OMFP fluorescence Ex485/Em525; hits give high values;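 compounds tested at 10 µM final in the well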
In all, about 65,000 compounds went through this assay and about 85 (0.1%) were called active. The sample holds actives, similar compounds and a random draw of the others, so the mix is not that of the screen.
inhibition of -10% or higher: MET. Under -10%: NOT MET.

molecule	classLabel
O=C(Nc1cccc(NC(=O)N2CCN(c3ccccc3)CC2)c1)N1CCN(c2ccccc2)CC1	MET

Is reported inhibition greater than or equal to -10% here: COc1ccc(C(=O)NCc2cn3ccccc3n2)cc1
MET

Continue with O=C(CCCn1c(=O)oc2ccccc21)Nc1cccnc1
NOT MET

Continue with CC1CCCCC1NC(=O)CSc1nnc(N)s1 (configuration not stated)
NOT MET

Continue with COc1ccc(CCNC(=O)c2cc(-c3ccc4c(c3)OCO4)on2)cc1OC
MET

Continue with O=C(c1ccc(S(=O)(=O)N2CCOCC2)cc1)N1CCN(c2ccccc2)CC1
MET

Continue with O=C(OCC(=O)c1cccs1)C1=COCCO1
NOT MET

---

Please provide measured inhibition for the entries that follow.
subjectOfTest: M-phase inducer phosphatase 2 (Homo sapiens) (UniProt P30305)
procedureSummary: inhibitors of Cdc25B phosphatase catalytic domain, primary screen, biochemical, OMFP fluorescence (AID 368)
experimentalConditions: recombinant Cdc25B, OMFP fluorescence Ex485/Em525; hits give high values;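 compounds tested at 10 µM final in the well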
Among all 65,000 compounds or so, about 85 (0.1%) were called active. What follows is part of a selection rich in actives, with near analogues and random picks from the rest.
Give bare numbers, in %.

Would you mind giving inhibition for every compound in the list below?
1. O=S(=O)(Nc1ccc2nc(-c3ccco3)[nH]c2c1)c1ccccc1
2. COCCNC(=O)C(c1ccc(C)o1)N(Cc1cccs1)C(=O)c1snc(C(N)=O)c1N (configuration not stated)

[-8.83, -5.11]

Would you mind giving inhibition for every compound in the list below?
1. O=c1cc(CSc2ccc(Cl)cc2)nc(N2CCOCC2)[nH]1
2. CC1Cc2ccccc2N1C(=O)Cn1cnc2ccccc2c1=O (configuration not stated)

1. 7.35
2. -1.71

Would you mind giving inhibition for every compound in the list below?
1. Cc1cc(C)cc(NC(=O)N2CCC(NC(=O)c3ccc(F)cc3)CC2)c1
2. COc1ccc(S(=O)(=O)N(CCCN2CCCC2=O)Cc2cc3c(C)ccc(C)c3[nH]c2=O)cc1
3. Nc1ccc(SCCN2C(=O)c3ccccc3C2=O)cc1
4. Cc1ccnc(N2CCCC(C(=O)Nc3cc(F)ccc3C)C2)n1 (configuration not stated)
5. Cc1ccc(N)cc1-n1c(C)ccc1C

5.11
4.58
3.47
12.7
1.36

Would you mind giving inhibition for every compound in the list below?
1. CCn1c(SCC(=O)Nc2ccccc2F)nc2c(c1=O)SC(C)C2 (configuration not stated)
2. Cc1ccc(C)c(N(CC(=O)NCc2ccco2)C(=O)CCC(=O)Nc2ccccn2)c1

[-15.6, 0.139]

Would you mind giving inhibition for every compound in the list below?
1. CCCN1CCN(CCCNC(=O)CN2C(=O)COc3ccccc32)CC1
2. Cc1ncc(CC(=O)n2cc(C(=O)c3cc(Cl)ccc3O)cn2)s1
3. CC1CN(c2cc(=O)n(Cc3ccc(F)cc3)c(=O)[nH]2)CC(C)O1 (configuration not stated)
4. O=C(NC1(C(F)(F)F)N=C2SCCN2C1=O)c1ccco1 (configuration not stated)
5. O=S(=O)(c1ccc2ccccc2c1)N1CCN(S(=O)(=O)N2CCOCC2)CC1
6. CCC(=O)Nc1cccc(NC(=O)CSc2nnnn2C2CCCC2)c1
7. Cc1ccc(-c2csc3nnc(SCC(=O)NCc4ccco4)n23)cc1
8. CC1(C)CC(=O)C=C(NCCCNC2CCCCC2)C1

[-2.33, -7.5, -7.48, 0.794, -4.37, -2.8, -17.7, -12.2]

Would you mind giving inhibition for every compound in the list below?
1. CCC1SC2=NCCN2C1(O)c1ccc(Cl)cc1 (configuration not stated)
2. CCc1c(C)nc2cc(-c3cccs3)[nH]n2c1=O

1. 1.15
2. -13.1

Would you mind giving inhibition for every compound in the list below?
1. C=CCn1c(SCC(=O)NC23CC4CC(CC(C4)C2)C3)nc(O)cc1=O
2. Cc1nc2c(-c3ccccc3)c(C)[nH]n2c(=O)c1Cl
3. Cc1cc(=O)oc(C)c1C(=O)NC1CC(C)(C)NC(C)(C)C1
4. CC(NC(=O)Nc1ccccc1)c1ccccc1 (configuration not stated)
5. CC1OC2C(OC1C)N(S(C)(=O)=O)CCN2S(C)(=O)=O (configuration not stated)

2.29
-4.09
-30.7
-11.4
-4.42

Would you mind giving inhibition for every compound in the list below?
1. CCOc1cc(NC(=O)c2ccco2)c(OCC)cc1NC(=O)COc1ccccc1
2. C=CCNC(=O)C1CC=CCC1C(=O)O (configuration not stated)

1. 2.37
2. -12.3

---

subjectOfTest: M-phase inducer phosphatase 2 (Homo sapiens)
procedureSummary: inhibitors of Cdc25B phosphatase catalytic domain, primary screen, biochemical, OMFP fluorescence (AID 368)
experimentalConditions: recombinant Cdc25B, OMFP fluorescence Ex485/Em525; hits give high values;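 compounds tested at 10 µM final in the well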
Hit rate of the full screen: of about 65,000 compounds, about 85 (0.1%) were called active. The entries come from a sample that favours actives as a whole.
outcomeMeasure: inhibition

Example entries begin here.
compound	testValue
Cc1ccc(S(=O)(=O)N2CCC(C(=O)OCC(=O)N3CC(=O)Nc4ccccc43)CC2)cc1	-6.66% (inactive)
CCN1C(=O)C(C(=O)NC(C)c2ccccc2)C2CC1(C)Oc1ccccc12 (stereo not given)	-6.65% (inactive)
COc1cc(OC)c(C(=O)Nc2ccc(N(C)C)cc2)cc1OC	4.05% (inactive)
O=C(O)CSC(NC(=O)c1cccnc1)(C(F)(F)F)C(F)(F)F	-2.28% (inactive)

Give its inhibition value. Item: COc1ccc(OC)c(C2N(c3ccccn3)C(=O)C3CCCN32)c1 (stereo not given)
6.93% (inactive)
